Measured values drawn from PubChem BioAssay (EPA / NIEHS) for this set.

Read-out: Matrix Metallopeptidase 9 (MMP9), MMP9 (gene 4318)
Test: BSK_KF3CT_MMP9: BioMAP Diversity Plus: KF3CT Assay for Matrix Metallopeptidase 9 (MMP9) Biomarker Activity (AID 2283074)
Conditions: primary human keratinocytes with fibroblasts; actives raise or lower the signal
Description: BSK_KF3CT is a cell-based, multiplexed-readout assay that uses keratinocytes and foreskin fibroblasts, a human skin primary cell co-culture, with measurements taken at 24 hours after chemical dosing in a 96-well plate.BSK_KF3CT_MMP9 is an assay component measured in the BSK_KF3CT assay. It measures MMP-9 antibody related to regulation of gene expression using ELISA technology.Data from the assay component BSK_KF3CT_MMP9 was analyzed into 1 assay endpoint. […]
Active and inactive are the calls of the source. Rule for the calls: active = hit-call score of the fitted dose curve at least 0.9, where 1 is the maximum; inactive = score below 0.9.
Respond with a class label; see active, inactive

# lookup: test call for CN(C)CCC(c1ccc(Cl)cc1)c1ccccn1 (stereo not given)
inactive

Could you kindly confirm the outcome this assay logged for CC(C)C1OCCN1CCOC(=O)NCCCCCCNC(=O)OCCN1CCOC1C(C)C (stereo not given) ?
inactive

Please state the recorded outcome for this molecule: CC[N+](CC)(CC(=O)Nc1c(C)cccc1C)Cc1ccccc1 (tested in a mixture with another compound)
inactive

How was CCCCCCC(O)CCCCCCCCCCC(=O)OC (stereo not given) classified in this test?
inactive

Identify the outcome logged in this assay for the molecule shown: COc1ccccc1Oc1c(NS(=O)(=O)c2ccc(C(C)(C)C)cc2)nc(-c2ncccn2)nc1OCCO
inactive

Look up the recorded call for COC(=O)/C=C\C(=O)OC in this test.
inactive

Hi team, can someone confirm the assay call for CCCCCCCCCC/C=C/C1CC(=O)OC1=O (stereo not given) ?
active

I would be grateful if you could indicate the recorded call for Cc1c(C(N)=O)cc([N+](=O)[O-])cc1[N+](=O)[O-] .
inactive

// param item: CC[N+](CC)(CC(=O)Nc1c(C)cccc1C)Cc1ccccc1 ; yields the recorded call
inactive

Any idea what this test logged for COc1cc(CNC(=O)CCCC/C=C/C(C)C)ccc1O ?
inactive

Dear all, I need the recorded test outcome for Cc1cccnc1 , thank you.
inactive

Given CC(C)CC(=O)CC(C)CC(C)C (stereo not given) , state the outcome it received in this test.
active

# lookup: test call for CCCCCCCCCCC1CO1 (stereo not given)
active

Recorded call for CN(C)Cc1cc(C(C)(C)C)c(O)c(C(C)(C)C)c1 ?
inactive

What classification did CCCCC(CC)COC(=O)C=Cc1ccc(OC)cc1 (stereo not given) end up with in this test?
inactive

----------
biological target: Cellular tumor antigen p53 (Homo sapiens); test: TOX21_p53_BLA_p2_ratio: Tox21 HCT-116 p53 Agonism Beta-lactamase Assay, Ratio, Phase 2 (AID 2283592)
Records with an inconclusive call do not appear. Activity calls are given as the source filed them. Rule for the calls: active = hit-call score of the fitted dose curve at least 0.9, where 1 is the maximum; inconclusive = response in the unintended direction; inactive = score below 0.9.
Entry note: the call must match one of active, inactive

Which result was noted for this compound in the test: C=CCOc1cc(Cl)ccc1C(=O)NCCN(CC)CC
inactive

Fill in: this test's call for Nc1ccc(N)c2ccccc12 is ___
active

Could you check what this test reported for O=S(=O)(O)c1ccc2nc(-c3ccccc3)[nH]c2c1 ?
inactive

I would be grateful if you could indicate the recorded call for Cc1cc(Cl)c(C)cc1Cl .
inactive

Give the logged outcome of this assay for the following compound: O=C(NOCC1CC1)c1ccc(F)c(F)c1Nc1ccc(I)cc1Cl
active

Hi, do you know how Nc1cc(C(=O)O)ccc1Cl came out in this test?
inactive

Write down the call the test reported for this compound. Item: CC(C)CCCC(C)N (configuration not stated)
inactive

Any idea what this test logged for CO[C@@H]1[C@@H](OC(N)=O)[C@@H](O)[C@H](Oc2ccc3c(O)c(NC(=O)c4ccc(O)c(CC=C(C)C)c4)c(=O)oc3c2C)OC1(C)C ?
inactive

What was the test verdict on CN1CC(=O)N/C1=N/C(=O)Nc1cccc(Cl)c1 ?
inactive

Recorded test outcome, item CC(C)(C)C(=O)C(Oc1ccc(Cl)cc1)n1ccnc1 (configuration not stated)
inactive

Look up the recorded call for CO[Si](CCCCl)(OC)OC in this test.
inactive

What did the test return for Cc1[nH]c(=O)c(C#N)cc1-c1ccc2nccn2c1 ?
inactive

What classification did O=C(O)c1cc(O)c2c(c1)[C@H]([C@H]1c3cc(C(=O)O)cc(O)c3C(=O)c3c(O[C@@H]4O[C@H](CO)[C@@H](O)[C@H](O)[C@H]4O)cccc31)c1cccc(O[C@@H]3O[C@H](CO)[C@@H](O)[C@H](O)[C@H]3O)c1C2=O end up with in this test?
inactive

Please share the test call associated with Cc1cc(C(C)(C)C)c(O)c(C)c1Cn1c(=O)n(Cc2c(C)cc(C(C)(C)C)c(O)c2C)c(=O)n(Cc2c(C)cc(C(C)(C)C)c(O)c2C)c1=O .
inactive

Test call, this compound: CC(CN1CC(=O)NC(=O)C1)N1CC(=O)NC(=O)C1 (configuration not stated)
active

Would you mind telling me which call this test gave CC1=CC(=O)CC(C)(C)C1(O)/C=C/C(C)=C\C(=O)O (configuration not stated) ?
inactive

// outcome(item) with item = CCCCNC1CC(C)(C)NC(C)(C)C1
inactive

Outcome? CCCC/C=C/CCCCO
inactive

Hi, sorry to bother you, what did the test record for Cn1c(=O)c2[nH]c(Br)nc2n(C)c1=O ?
inactive

Test call, this compound: CC(C)CN(C[C@@H](OP(=O)(O)O)[C@H](Cc1ccccc1)NC(=O)O[C@H]1CCOC1)S(=O)(=O)c1ccc(N)cc1
inactive

Called result for Nc1nc(-c2ccccc2)c(Br)c(=O)[nH]1
inactive

Record request — test call for Cc1nc2ccccn2c(=O)c1CCN1CCC(C(=O)c2ccc(F)cc2)CC1
inactive

----------
assay: CCTE_Mundy_HCI_Cortical_NOG_NeuriteLength: CCTE's Neurite Outgrowth Assay in rat cortical cells for Neurite Length, Mundy Lab (AID 2284213)
The source made the active and inactive calls. How the source made its calls: active means hit-call score of the fitted dose curve at least 0.9, where 1 is the maximum; inactive means score below 0.9.
Please state which outcome applies, choosing from active, inactive

Would you mind telling me which call this test gave CC1(C)S[C@@H]2[C@H](NC(=O)[C@H](N)c3ccccc3)C(=O)N2[C@H]1C(=O)O ?
inactive

Tell me the assay call for C[C@H](CS)C(=O)N1CCC[C@H]1C(=O)O please.
inactive

Hey, what did the test say about CNCCC(Oc1ccc(C(F)(F)F)cc1)c1ccccc1 (stereo not given) ?
active

Which outcome was assigned to CN(C)CCC(c1ccc(Cl)cc1)c1ccccn1 (stereo not given) in this test?
inactive

// outcome(item) with item = CC1(C)S[C@@H]2[C@H](NC(=O)[C@H](N)c3ccc(O)cc3)C(=O)N2[C@H]1C(=O)O
inactive

----------
Molecular target: Cellular tumor antigen p53 (Homo sapiens) (UniProt P04637)
Sequence (P04637 whole entry, looked up): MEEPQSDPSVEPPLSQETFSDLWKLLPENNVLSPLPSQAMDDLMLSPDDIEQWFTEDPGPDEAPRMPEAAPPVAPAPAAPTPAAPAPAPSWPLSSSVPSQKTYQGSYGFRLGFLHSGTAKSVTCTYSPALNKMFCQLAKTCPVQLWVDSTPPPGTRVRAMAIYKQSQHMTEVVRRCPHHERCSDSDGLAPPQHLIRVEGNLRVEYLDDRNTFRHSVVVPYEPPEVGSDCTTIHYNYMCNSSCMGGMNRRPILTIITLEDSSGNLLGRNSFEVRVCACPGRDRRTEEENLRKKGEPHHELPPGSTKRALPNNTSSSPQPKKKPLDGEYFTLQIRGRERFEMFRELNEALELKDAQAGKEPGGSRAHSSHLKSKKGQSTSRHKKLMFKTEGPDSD
Experiment: TOX21_p53_BLA_p5_ratio: Tox21 HCT-116 p53 Agonism Beta-lactamase Assay, Ratio, Phase 5 (AID 2283599)
Experimental: TOX21_p53_BLA_p5 is a cell-based, single-readout assay that uses HCT116, a human intestinal cell line, […] in a 1536-well plate.TOX21_p53_BLA_p5_ratio is an assay readout measuring reporter gene via receptor activity and designed using inducible reporter (beta lactamase induction) detected with GAL4 b-lactamase reporter gene. […] This assay endpoint, TOX21_p53_BLA_p5_ratio, was analyzed in the positive analysis fitting direction relative to DMSO as the negative control and baseline of activity. […]
Records with an inconclusive call do not appear. Activity calls are given as the source filed them. Rule for the calls: active = hit-call score of the fitted dose curve at least 0.9, where 1 is the maximum; inconclusive = response in the unintended direction; inactive = score below 0.9.
Could you please pick one outcome from this set? active, inactive

Per the records of this test, what outcome belongs to C=C1CC[C@H](O)C/C1=C/C=C1\CCC[C@]2(C)[C@@H]([C@H](C)CCCC(C)(C)O)CC[C@@H]12 ?
active

Which result was noted for this molecule in the test: C/C=C1\NC(=O)[C@H]2CSSCC/C=C/[C@H](CC(=O)N[C@H](C(C)C)C(=O)N2)OC(=O)C(C(C)C)NC1=O (stereo partly drawn)
active

How was CC(=O)c1ccc2c(c1)N(CCCN(C)C)c1ccccc1S2 classified in this test?
inactive

# outcome recorded in this test, key = CC(=O)N(CC(C)C(=O)O)c1c(I)cc(I)c(N)c1I (stereo not drawn)
inactive

Could you kindly confirm the outcome this assay logged for COc1cc(C=C2CCCC(=Cc3ccc(O)c(OC)c3)C2=O)ccc1O ?
active

Check the results log: what was the call for Cc1ccc(N(CCO)CCO)cc1 ?
inactive

Each molecule tested received a call. Report the one for CC(=O)NCCCS(=O)(=O)O .
inactive

Could you check what this test reported for COc1cccc(N(C)C(=S)Oc2ccc3c(c2)CCCC3)n1 ?
inactive

Dear all, I need the recorded test outcome for Cc1cc(Br)ccc1NC(=O)CCl , thank you.
active

Please indicate how the test categorized Cc1ccc2c(ccc3ccccc32)c1 .
inactive

Call for entry CS(=O)(=O)OCCCNCCCOS(C)(=O)=O :
inactive

Tell me the assay call for CCCC(c1cc(C(C)(C)C)c(O)cc1C)c1cc(C(C)(C)C)c(O)cc1C please.
active

Called result for CCC(=O)C=CC1C(C)=CCCC1(C)C (stereo not drawn)
inactive

GET /call?item= CCN(CC)CCSC(=O)C(c1ccccc1)c1ccccc1 returns the recorded outcome of this test.
inactive

Called result for OC[C@@H](O)[C@@H](O)CO
inactive

Recorded test call requested for NC(=O)[C@@H]1CCCN1C(=O)[C@H](Cc1cnc[nH]1)NC(=O)[C@@H]1CCC(=O)N1
inactive

Check the results log: what was the call for O=C(O)CSCC(=O)NC1CCSC1=O (stereo not drawn) ?
inactive

I would be grateful if you could indicate the recorded call for O=C(Nc1ccc(/C=C/c2ccc(NC(=O)c3cc(S(=O)(=O)O)c4cccnc4c3O)cc2S(=O)(=O)O)c(S(=O)(=O)O)c1)c1cc(S(=O)(=O)O)c2cccnc2c1O .
inactive

Please state the recorded outcome for this molecule: CCCCCCCCS
inactive

So what was the verdict on O=C(O)c1ccc(OCCCOc2ccc(C(=O)O)cc2)cc1 in this test?
inactive

Dear all, I need the recorded test outcome for Nc1nc(/C(=C/CC(=O)O)C(=O)N[C@@H]2C(=O)N3C(C(=O)O)=CCS[C@H]23)cs1 , thank you.
inactive

Which outcome was assigned to Cc1cccc(Nc2ccncc2S(=O)(=O)NC(=O)NC(C)C)c1 in this test?
inactive

What outcome does the record of this test show for Oc1cc(O)c2c(c1)O[C@H](c1ccc(O)c(O)c1)[C@H](O)C2 ?
inactive
